Give measured IC50 for each item. Keep answers brief.
Measurement target: Melanocyte-stimulating hormone receptor (Homo sapiens)
Sequence (Q01726 whole entry): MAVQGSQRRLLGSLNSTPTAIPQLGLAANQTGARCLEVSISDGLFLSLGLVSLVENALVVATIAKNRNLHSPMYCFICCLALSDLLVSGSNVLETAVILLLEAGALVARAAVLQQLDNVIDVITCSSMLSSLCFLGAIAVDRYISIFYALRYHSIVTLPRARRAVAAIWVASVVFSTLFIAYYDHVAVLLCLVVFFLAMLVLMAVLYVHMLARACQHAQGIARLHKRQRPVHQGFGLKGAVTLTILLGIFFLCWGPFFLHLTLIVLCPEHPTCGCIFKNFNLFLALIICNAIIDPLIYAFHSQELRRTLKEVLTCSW
Method notes: Displacement of [125I]NDP-alphaMSH from human MC1 receptor expressed in HEK293 cells

Could you tell me which IC50 is on file for `CC(=O)N[C@H]1CCC(=O)NCC[C@@H](C(=O)N[C@@H](Cc2c[nH]c3ccccc23)C(N)=O)N(CCCCN=C(N)N)C(=O)[C@@H](Cc2ccccc2)NC(=O)[C@H](Cc2cnc[nH]2)NC1=O` ? > 1 µM

Could you tell me which IC50 is on file for `CC(=O)N[C@H]1CSSC[C@H](C(=O)N[C@@H](Cc2c[nH]c3ccccc23)C(N)=O)N(CCCCN=C(N)N)C(=O)[C@@H](Cc2ccccc2)NC(=O)[C@H](Cc2c[nH]cn2)NC1=O` ? 1 µM

Could you tell me which IC50 is on file for CC(=O)N[C@H]1CSSC[C@@H](C(=O)N(CCCCN=C(N)N)C(Cc2c[nH]c3ccccc23)C(N)=O)NC(=O)[C@@H](Cc2ccc3ccccc3c2)NC(=O)[C@H](Cc2c[nH]cn2)NC1=O (stereo in doubt) ? > 1 µM

Could you tell me which IC50 is on file for `CC(=O)N[C@H]1CSSC[C@@H](C(=O)N(CCCCN=C(N)N)[C@@H](Cc2c[nH]c3ccccc23)C(N)=O)NC(=O)[C@@H](Cc2ccccc2)NC(=O)[C@H](Cc2cnc[nH]2)NC1=O` ? > 1 µM

Could you tell me which IC50 is on file for `CC(=O)N[C@H]1CCC(=O)NCCC[C@@H](C(=O)N[C@@H](Cc2c[nH]c3ccccc23)C(N)=O)N(CCCCN=C(N)N)C(=O)[C@@H](Cc2ccc3ccccc3c2)NC(=O)[C@H](Cc2c[nH]cn2)NC1=O` ? > 10 µM

Could you tell me which IC50 is on file for `CC(=O)N[C@H]1CCC(=O)NCCC[C@@H](C(=O)N[C@@H](Cc2c[nH]c3ccccc23)C(N)=O)N(CCCCN=C(N)N)C(=O)[C@@H](Cc2ccccc2)NC(=O)[C@H](Cc2c[nH]cn2)NC1=O` ? 0.75 µM

The reported numbers originate from ChEMBL document CHEMBL1137337.
